- System: cellular pERK in Kuramochi (WT KRAS) cell-line
- METHOD_NOTES: Cell based pERK assay (HTRF), Kuramochi
- CONDITION_NOTES: Kuramochi (WT KRAS) cells, 2 hours incubation
Mark 1 (yes) only when EC50 stays strictly below 20 nM. Values equal to the cut-off are 0 (no).

Recorded results for 2 compounds are shown here.
COMPOUND	MEASURED_ON	ASSIGNED_LABEL
C#Cc1c(F)ccc2cccc(-c3nc4c5c(nc(OC[C@@]67CCCN6[C@H](COc6cc(C(F)(F)F)ncn6)CC7)nc5c3F)N3CCCOC[C@@H]3CC4)c12 [Example 6-15]	cellular pERK in Kuramochi (WT KRAS) cell-line	0 (no)
CCc1c(F)ccc2cc(O)cc(-c3nc4c5c(nc(OC[C@@]67CCCN6C[C@H](F)C7)nc5c3F)N3CCCC[C@H]3CC4)c12 [Example 2-1]	cellular pERK in Kuramochi (WT KRAS) cell-line	0 (no)

Ask: I wonder whether C#Cc1c(F)ccc2cc(O)cc(-c3nc4c5c(nc(OCC67CCCN6[C@H](COC(C(F)(F)F)C(F)(F)F)CC7)nc5c3F)N3CCCOCC3CC4)c12 (some centres unmarked) [Example 22-7] has EC50 below 20 nM. Can you tell?
Reply: 1 (yes)

Ask: I wonder whether C#Cc1c(F)ccc2cc(O)cc(-c3nc4c5c(nc(OC[C@@]67CCCN6[C@H](COC(C(F)(F)F)(C(F)(F)F)C(F)(F)F)CC7)nc5c3F)N3CCCOC[C@@H]3CC4)c12 [Example 22-4] has EC50 below 20 nM. Can you tell?
Reply: 1 (yes)

The reported numbers originate from patent US20240383922A1.
